# measurementNotes: qHTS assay to identify small molecule antagonists of the estrogen receptor alpha (ER-alpha) signaling pathway - cell viability counter screen (AID 743074);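 also: HEK293 cells carrying ER-alpha-UAS-bla reporter stimulated with 17beta-estradiol; nearly all actives have a fitted effect of over 45% in size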
# measurementConditions: ERalpha-bla HEK293 viability, CellTiter-Glo luminescence, 18 h; series mostly up to 69.4 µM
Results filed as inconclusive are left out. Active and inactive are the calls of the source. Calls follow the shape of the full dose curve.
Classes used: active, inactive

compound	classAssignment
Cc1cccc(C)c1NC(=O)C1CCCCN1C (stereo not given)	inactive
NC(=O)[C@H]1O[C@@H](O)[C@H](O)[C@@H](O)[C@@H]1O	inactive
CC(C)CCC[C@@H](C)[C@H]1CC[C@H]2[C@@H]3CC=C4C[C@@H](O)CC[C@]4(C)[C@H]3CC[C@]12C	inactive
N[C@H](C(=O)O)[C@@H]1CC(Cl)=NO1	inactive
O=C(O)c1cc(=O)c2c3nc4ccccc4oc-3cc(=O)c2[nH]1	inactive
CNC(=O)OCc1cccc(COC(=O)NC)n1	inactive
Cc1cc(N)c2ccccc2[n+]1CCCCCCCCCC[n+]1c(C)cc(N)c2ccccc21	active
CN1C(=O)C[C@@H](C(=O)N[C@@H](Cc2cnc[nH]2)C(=O)N2CCC[C@H]2C(N)=O)NC1=O	inactive
CN[C@@H]1[C@@H](O[C@H]2O[C@H](CO)[C@@H](N)[C@H](O)[C@H]2O)O[C@H]2C[C@@H](N)[C@@H](O[C@H]3[C@H](O)[C@@H](O)[C@H](N)C[C@@H]3N)O[C@@H]2[C@@H]1O	inactive
Nc1c(CC(=O)O)cccc1C(=O)c1ccccc1	inactive

The measurements presented in this section are drawn from PubChem BioAssay (Tox21).
